studyTarget: T1, Recombinant human MASP1 enzyme (fragment corresponding to amino acids 297-699, C-terminal His Tag) (human, UniProt P48740 297-699)
T1 sequence: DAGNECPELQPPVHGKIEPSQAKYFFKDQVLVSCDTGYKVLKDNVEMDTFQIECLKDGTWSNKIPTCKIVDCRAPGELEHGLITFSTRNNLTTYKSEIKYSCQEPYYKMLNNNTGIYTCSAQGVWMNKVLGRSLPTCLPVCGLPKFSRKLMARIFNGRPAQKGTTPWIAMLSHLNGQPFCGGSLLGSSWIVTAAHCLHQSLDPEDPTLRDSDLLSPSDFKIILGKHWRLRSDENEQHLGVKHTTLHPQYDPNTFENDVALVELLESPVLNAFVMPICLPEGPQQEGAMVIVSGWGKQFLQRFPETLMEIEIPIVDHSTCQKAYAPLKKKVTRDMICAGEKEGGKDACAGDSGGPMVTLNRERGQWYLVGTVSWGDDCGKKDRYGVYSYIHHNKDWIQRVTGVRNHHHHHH
testDescription: cell-based or functional assay
Bridge positions count the residues as written; N and C are the ends. Square brackets hold non-standard residues; d marks the D form. Ends that are not written are not given here. Pro(cis-4-CF3) = O=C(O)[C@@H]1C[C@H](C(F)(F)F)CN1; Oic = O=C(O)[C@@H]1C[C@@H]2CCCC[C@@H]2N1; tBuAla = CC(C)(C)C[C@H](N)C(=O)O; Pen = CC(C)(S)[C@H](N)C(=O)O; Sar = CNCC(=O)O
readoutType: human MASP1 IC50 (nM)

{"binder": "[dA]ICSRSLP[Oic]I[Pen]IP-OH (disulfide 3-11; N-terminus assumed; SMILES CC[C@H](C)[C@H](NC(=O)[C@@H](C)N)C(=O)N[C@H]1CSSC(C)(C)[C@@H](C(=O)N[C@H](C(=O)N2CCC[C@H]2C(=O)O)[C@@H](C)CC)NC(=O)[C@H]([C@@H](C)CC)NC(=O)[C@@H]2C[C@@H]3CCCC[C@@H]3N2C(=O)[C@@H]2CCCN2C(=O)[C@H](CC(C)C)NC(=O)[C@H](CO)NC(=O)[C@H](CCCNC(=N)N)NC(=O)[C@H](CO)NC1=O) [aIC+SRSLP-(Oic)-I-(Pen)+IP-OH]", "measuredNumber": 4.9}
{"binder": "[Sar]ICSRSLP[Oic]I[Pen]IPQ-OH (disulfide 3-11; N-terminus assumed; SMILES CC[C@H](C)[C@H](NC(=O)CNC)C(=O)N[C@H]1CSSC(C)(C)[C@@H](C(=O)N[C@H](C(=O)N2CCC[C@H]2C(=O)N[C@@H](CCC(N)=O)C(=O)O)[C@@H](C)CC)NC(=O)[C@H]([C@@H](C)CC)NC(=O)[C@@H]2C[C@@H]3CCCC[C@@H]3N2C(=O)[C@@H]2CCCN2C(=O)[C@H](CC(C)C)NC(=O)[C@H](CO)NC(=O)[C@H](CCCNC(=N)N)NC(=O)[C@H](CO)NC1=O) [((N-Me)G)-IC+SRSLP-(Oic)-I-(Pen)+IPQ-OH]", "measuredNumber": 5.4}
{"binder": "AICSRS[tBuAla]P[Pro(cis-4-CF3)]ICIPD-NH2 (disulfide 3-11; N-terminus assumed; SMILES CC[C@H](C)[C@H](NC(=O)[C@H](C)N)C(=O)N[C@H]1CSSC[C@@H](C(=O)N[C@H](C(=O)N2CCC[C@H]2C(=O)N[C@@H](CC(=O)O)C(N)=O)[C@@H](C)CC)NC(=O)[C@H]([C@@H](C)CC)NC(=O)[C@@H]2C[C@H](C(F)(F)F)CN2C(=O)[C@@H]2CCCN2C(=O)[C@H](CC(C)(C)C)NC(=O)[C@H](CO)NC(=O)[C@H](CCCNC(=N)N)NC(=O)[C@H](CO)NC1=O) [AIC+SRS-((tBu)A)-P-((4-CF3)P)-IC+IPD-NH2]", "measuredNumber": 3.9}
{"binder": "[dA]ICSRSLP[Oic]I[Pen]IPE-OH (disulfide 3-11; N-terminus assumed; SMILES CC[C@H](C)[C@H](NC(=O)[C@@H](C)N)C(=O)N[C@H]1CSSC(C)(C)[C@@H](C(=O)N[C@H](C(=O)N2CCC[C@H]2C(=O)N[C@@H](CCC(=O)O)C(=O)O)[C@@H](C)CC)NC(=O)[C@H]([C@@H](C)CC)NC(=O)[C@@H]2C[C@@H]3CCCC[C@@H]3N2C(=O)[C@@H]2CCCN2C(=O)[C@H](CC(C)C)NC(=O)[C@H](CO)NC(=O)[C@H](CCCNC(=N)N)NC(=O)[C@H](CO)NC1=O) [aIC+SRSLP-(Oic)-I-(Pen)+IPE-OH]", "measuredNumber": 5.3}
